Molecular target: T1, human VPAC2 receptor (human, UniProt P41587 24-438)
T1 sequence (looked up): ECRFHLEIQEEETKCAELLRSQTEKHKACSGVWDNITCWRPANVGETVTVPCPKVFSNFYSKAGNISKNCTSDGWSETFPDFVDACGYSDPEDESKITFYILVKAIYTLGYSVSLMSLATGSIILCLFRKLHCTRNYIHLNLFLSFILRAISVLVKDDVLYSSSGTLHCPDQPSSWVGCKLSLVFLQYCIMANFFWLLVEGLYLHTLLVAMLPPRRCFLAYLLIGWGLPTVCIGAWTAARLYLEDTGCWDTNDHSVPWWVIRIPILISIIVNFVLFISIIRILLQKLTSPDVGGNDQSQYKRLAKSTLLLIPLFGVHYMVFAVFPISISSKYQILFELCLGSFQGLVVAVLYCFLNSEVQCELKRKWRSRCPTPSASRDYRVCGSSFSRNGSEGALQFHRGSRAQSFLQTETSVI
Assay: cell-based or functional assay
Where no end group is shown, it is not given here.
Parameter measured: EC50 cAMP, DiscoveRx
State the value with its unit after it.

Item under review: HSDAVFTDNYTRLRKQVAARKYLQSIKNKRYGGPSSGAPPPS [P20] . Reported EC50 cAMP, DiscoveRx?
2.13 nM

Item under review: HVDAVFTDNYTRLRKQVAAKKYLQSIKNKRYGGPSSGAPPPS (not fully specified) [P44] . Reported EC50 cAMP, DiscoveRx?
0.92 nM

Item under review: HLDAVFTDNYTRLRKQVAAKKYLQSIKNKRYGGPSSGAPPPS [P46] . Reported EC50 cAMP, DiscoveRx?
121 nM
